# assay.explanation: small-molecule microarray binders of probe aXIP, primary screen, biochemical, NeuroSMM set, 635/667 nm fluorescence (AID 1119);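 further: probe is the protein aXip251-270 applied at 1 µg/mL to compound-printed slides; binding of probe to printed compounds measured as 667 nm fluorescence plus signal to noise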
# experimental.context: higher = more signal, called active from +8 up or from −8 down
Record form. Attribute: composite Z-score. Fill in for each entry.
Would you mind answering with just the numeric figure?

stdin: Query (compound): C[N+](C)(C)CCCCNC(=O)[C@H]1C[C@H]2C(=O)N[C@@H](Cc3ccccc3)C(=O)N2[C@H]1c1ccc(O)cc1 ; field requested: composite Z-score
stdout: 0.474

stdin: Query (compound): CN1C(=O)C2C=CC(C(O)c3cccs3)N(Nc3ccccc3)C2C1=O (stereo not drawn) ; field requested: composite Z-score
stdout: -0.227

stdin: Query (compound): CC(C)(C)OC(=O)CC[C@]1(C(=O)O)N=C(c2ccc(OCCCO)cc2)O[C@H]1c1ccccc1N=[N+]=[N-] ; field requested: composite Z-score
stdout: 0.653

stdin: Query (compound): CCCCCN1CC=CC23O[C@@H]4/C=C\CCCOC(=O)C4[C@H]2C(=O)N(CCCO)[C@@H]3C1=O (stereo partly drawn) ; field requested: composite Z-score
stdout: -0.0981

stdin: Query (compound): CCOC(=O)[C@H]1C/C=C/C[C@H](C(=O)OCC)C(=O)O[C@H]2[C@@H](OC)O[C@H](CO)[C@@H](OC(=O)Nc3cccc(F)c3)[C@@H]2OC1=O ; field requested: composite Z-score
stdout: 0.46

stdin: Query (compound): CCCC[C@@H]1C[C@H]1[C@@H](NC(=O)c1ccco1)c1ccc(C(=O)OC)cc1 ; field requested: composite Z-score
stdout: 0.224

stdin: Query (compound): COC(=O)[C@@]1(Cc2ccccc2)[C@H]2c3cc(C(=O)N4CCCC4)n(Cc4cccc5ccccc45)c3C[C@H]2CN1C(=O)c1ccccc1 ; field requested: composite Z-score
stdout: 0.304

stdin: Query (compound): O=C1NC(=O)C2C1C=CC(C(O)c1cccc3ccccc13)N2Nc1ccccn1 (stereo not drawn) ; field requested: composite Z-score
stdout: 0.0886
